target-desc: HLA-A*24:02
measurement-notes: IEDB peptide-MHC binding, purified MHC/competitive/fluorescence; bounds were set here for any values at or beyond the usual limits of such assays
condition-info: source organism: Zaire ebolavirus
Recorded IC50 for the following sequences

{"columns": ["seq-text", "IC50"],
 "data": [
  ["YLEGHGFRF", "0.18 µM"],
  ["VGHMMVIFR", "≥ 271 µM"],
  ["IWKVNPEID", "62.1 µM"],
  ["IHQGMHMVA", "≥ 185 µM"],
  ["RFTPQFLLQ", "4.08 µM"],
  ["AWQSVGHMM", "34.7 µM"],
  ["TGILQLPRD", "≥ 506 µM"]
]}

---

target-desc: HLA-A*33:01
measurement-notes: IEDB peptide-MHC binding, purified MHC/competitive/radioactivity; filed as Kd, often an IC50 or EC50 that approximates it; bounds were set here for any values at or beyond the usual limits of such assays
condition-info: source organism: Vaccinia virus WR

{"columns": ["seq-text", "Kd"],
 "data": [
  ["YTVEFDRDK", "≥ 44.8 µM"],
  ["DSPLTLLIK", "≥ 77.7 µM"],
  ["IAPGIADIR", "≥ 29 µM"],
  ["LLLPSTDVNK", "≥ 70 µM"],
  ["YVIRHVDGK", "≥ 77.7 µM"],
  ["SAVVDNKLK", "≥ 77.7 µM"],
  ["NLEMIDERK", "≥ 77.7 µM"],
  ["VIVVPVIDR", "≥ 77.7 µM"]
]}

---

target-desc: HLA-A*68:01
measurement-notes: IEDB peptide-MHC binding, purified MHC/competitive/radioactivity; filed as Kd, often an IC50 or EC50 that approximates it; bounds were set here for any values at or beyond the usual limits of such assays
condition-info: source organism: SARS coronavirus Tor2
Labelling field: enter Y if recorded Kd is less than 0.1 µM. Enter N if it equals or exceeds that cut-off.

{"columns": ["seq-text", "group-label"],
 "data": [
  ["ALRANSAVK", "N"],
  ["IAQSKGLYR", "N"],
  ["GLVASIKNFK", "N"],
  ["TTGIGYQPYR", "Y"],
  ["STGNYNYKY", "N"],
  ["GTSTDVVYR", "Y"],
  ["TLAVPYNMR", "Y"],
  ["ALLRALRLTK", "N"],
  ["TLDESFLGR", "N"],
  ["LMNVITLVYK", "N"],
  ["ALNHTKKWK", "N"]
]}

---

target-desc: HLA-A*32:01
measurement-notes: IEDB peptide-MHC binding, purified MHC/competitive/radioactivity; filed as Kd, often an IC50 or EC50 that approximates it; bounds were set here for any values at or beyond the usual limits of such assays
condition-info: source organism: Vaccinia virus WR
Recorded Kd for the following sequences
property-name: Kd (nM)

{"columns": ["seq-text", "property-name", "measured-value"],
 "data": [
  ["IASTLIVTI", "Kd", 73.5],
  ["LSIFFYSSF", "Kd", 129],
  ["LMINNMHSI", "Kd", 13800],
  ["TMFKIVYSL", "Kd", 0.915],
  ["KSHAAYIDY", "Kd", 875],
  ["FTNAGIVAY", "Kd", 149],
  ["ALLELFNAF", "Kd", 166]
]}

---

target-desc: HLA-A*03:01
measurement-notes: IEDB peptide-MHC binding, purified MHC/competitive/radioactivity; filed as Kd, often an IC50 or EC50 that approximates it; bounds were set here for any values at or beyond the usual limits of such assays
condition-info: source organism: SARS coronavirus Tor2
Recorded Kd for the following sequences
property-name: Kd (nM)

{"columns": ["seq-text", "units-label", "limit-qualifier", "measured-value"],
 "data": [
  ["IAQSKGLYR", "nM", "=", 3880],
  ["QSLCFLLTQK", "nM", "=", 6.2],
  ["ALLRALRLTK", "nM", "=", 3.17],
  ["LLDSYFVVK", "nM", "=", 40.3],
  ["TLDESFLGR", "nM", "=", 1430],
  ["QQLRVESSSK", "nM", "=", 588],
  ["TTGIGYQPYR", "nM", "=", 6450],
  ["GLVASIKNFK", "nM", "=", 630],
  ["TLAVPYNMR", "nM", "=", 995],
  ["ALCTFLLNK", "nM", "=", 0.778],
  ["ALNHTKKWK", "nM", "=", 784],
  ["SLCFLLTQK", "nM", "=", 25.6],
  ["STGNYNYKY", "nM", "≥", 20400],
  ["GTSTDVVYR", "nM", "=", 79.2],
  ["LMNVITLVYK", "nM", "=", 10.6]
]}

---

target-desc: HLA-A*03:01
measurement-notes: IEDB peptide-MHC binding, purified MHC/competitive/radioactivity; filed as Kd, often an IC50 or EC50 that approximates it; bounds were set here for any values at or beyond the usual limits of such assays
condition-info: source organism: Vaccinia virus WR

{"columns": ["seq-text", "Kd"],
 "data": [
  ["NAISSRVDRY", "≥ 42.6 µM"],
  ["DFESVTNSVY", "≥ 33.3 µM"],
  ["VTISKDNLER", "≥ 39 µM"],
  ["PSAEDNYLAK", "≥ 32.2 µM"],
  ["LMYDIINSV", "≥ 35.1 µM"]
]}

---

target-desc: HLA-A*02:03
measurement-notes: IEDB peptide-MHC binding, purified MHC/competitive/radioactivity; filed as Kd, often an IC50 or EC50 that approximates it; bounds were set here for any values at or beyond the usual limits of such assays
condition-info: source organism: Vaccinia virus WR
Recorded Kd for the following sequences
property-name: Kd

{"columns": ["seq-text", "property-name", "measured-value"],
 "data": [
  ["DLAIKQYGDI", "Kd", "≥ 33.3 µM"],
  ["VAKCCSKTNT", "Kd", "≥ 21.7 µM"],
  ["NTGMGMYYPT", "Kd", "≥ 21 µM"],
  ["SAGFTATICL", "Kd", "≥ 20.1 µM"]
]}

---

target-desc: HLA-A*02:02
measurement-notes: IEDB peptide-MHC binding, purified MHC/competitive/radioactivity; filed as Kd, often an IC50 or EC50 that approximates it; bounds were set here for any values at or beyond the usual limits of such assays
condition-info: source organism: Vaccinia virus WR
pKd: −log10 of the molar value.

{"columns": ["seq-text", "target-desc", "limit-qualifier", "pKd"],
 "data": [
  ["DISDVKVLAA", "HLA-A*02:02", "≤", 4.47],
  ["VTGSYNLVDT", "HLA-A*02:02", "≤", 4.15],
  ["ELTSNCTRT", "HLA-A*02:02", "≤", 4.11],
  ["NTGMGMYYPT", "HLA-A*02:02", "≤", 4.63],
  ["TQFNFNGHT", "HLA-A*02:02", "≤", 4.36],
  ["AIKSNNHLT", "HLA-A*02:02", "≤", 4.29],
  ["LILSNKLLYA", "HLA-A*02:02", "=", 6.33],
  ["PLSPDTCLLA", "HLA-A*02:02", "=", 4.95],
  ["CALVSDCAST", "HLA-A*02:02", "=", 5.19],
  ["ITLILSNKL", "HLA-A*02:02", "=", 5.29],
  ["VAKCCSKTNT", "HLA-A*02:02", "=", 4.83],
  ["YVILKDPRIA", "HLA-A*02:02", "=", 5.22],
  ["QIFNIISYII", "HLA-A*02:02", "=", 6.54],
  ["IVYGRSNAIL", "HLA-A*02:02", "=", 7.04],
  ["GVPHSVFIA", "HLA-A*02:02", "=", 5.27],
  ["YVSVMNFIPI", "HLA-A*02:02", "=", 6.47],
  ["FTELENKKV", "HLA-A*02:02", "=", 4.71],
  ["LIKTLSPAHL", "HLA-A*02:02", "=", 5.73],
  ["ELENKKVEYV", "HLA-A*02:02", "≤", 4.67],
  ["IAVSVYGAI", "HLA-A*02:02", "=", 5.83],
  ["DLAIKQYGDI", "HLA-A*02:02", "=", 4.75],
  ["TVDVRNIVT", "HLA-A*02:02", "=", 4.87],
  ["TQSGALEVLM", "HLA-A*02:02", "=", 6.08],
  ["FTEEQQQSFM", "HLA-A*02:02", "=", 5.95],
  ["EILSNTTKTL", "HLA-A*02:02", "=", 6.46],
  ["RLQMAGVEV", "HLA-A*02:02", "=", 6.49],
  ["TIESAKTKI", "HLA-A*02:02", "=", 4.79],
  ["ITDQTVNICI", "HLA-A*02:02", "≤", 4.15],
  ["KVLSIMAFIL", "HLA-A*02:02", "=", 8.63],
  ["AAAKTPVIVV", "HLA-A*02:02", "=", 5.09],
  ["YLYTEYFLFL", "HLA-A*02:02", "=", 9.16],
  ["FLDWIKDIMT", "HLA-A*02:02", "=", 6.37],
  ["EAFETQSGAL", "HLA-A*02:02", "=", 5.07]
]}
